target_desc: Adenosine receptor A1 (Homo sapiens, UniProt P30542)
Sequence (P30542 whole entry): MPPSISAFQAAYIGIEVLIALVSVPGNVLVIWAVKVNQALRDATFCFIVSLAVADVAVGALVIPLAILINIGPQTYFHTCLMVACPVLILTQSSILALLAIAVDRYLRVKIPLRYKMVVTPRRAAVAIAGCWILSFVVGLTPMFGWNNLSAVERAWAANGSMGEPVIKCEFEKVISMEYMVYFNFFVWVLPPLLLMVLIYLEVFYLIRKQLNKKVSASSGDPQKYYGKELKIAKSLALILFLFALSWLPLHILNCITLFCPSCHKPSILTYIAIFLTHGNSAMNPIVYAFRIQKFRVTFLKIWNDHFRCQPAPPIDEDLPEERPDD
test_protocol: Agonist activity at human A1 receptor expressed in Flp-In-CHO cells assessed as inhibition of forskolin stimulated cAMP accumulation incubated for 30 mins by LANCE cAMP assay
Assay type: functional, cell-based
pEC50: −log10 of the molar value.

smiles_str | pEC50
Nc1sc(-c2ccc(C(=O)NCCc3ccc(CCNc4ncnc5c4ncn5[C@@H]4O[C@H](CO)[C@@H](O)[C@H]4O)cc3)cc2)c(-c2cccc(C(F)(F)F)c2)c1C(=O)c1ccccc1 | 6.26
